System: Pseudomonas aeruginosa
Procedure Summary: Antibacterial activity against MeXAB-OprM deficient Pseudomonas aeruginosa TNP077 selected after 1.0 ug/ml of azithromycin by agar dilution method
Assay type: functional
This listing pairs compounds with measured MIC.
Observed Property: MIC (µg/mL)

>>> print(df.to_string())
                                   compound           system_tested  observed_property  meas_value
0  CO[C@@H]1[C@@H](OC(N)=O)[C@@H](O)[C@H](Oc2ccc3c(O)c(NC(=O)c4ccc(O)c(CC=C(C)C)c4)c(=O)oc3c2C)OC1(C)C  Pseudomonas aeruginosa                MIC        12.5
1  CC1(C)S[C@@H]2[C@H](NC(=O)C(C(=O)O)c3ccccc3)C(=O)N2[C@H]1C(=O)O (stereo partly drawn)  Pseudomonas aeruginosa                MIC        1.56
2  CC(C)(O/N=C(\C(=O)N[C@@H]1C(=O)N2C(C(=O)[O-])=C(C[n+]3ccccc3)CS[C@H]12)c1csc(N)n1)C(=O)O  Pseudomonas aeruginosa                MIC        0.39
3  C[C@@H](O)[C@H]1C(=O)N2C(C(=O)O)=C(SCCNC=N)C[C@H]12 [IMIPENEM ANHYDROUS]  Pseudomonas aeruginosa                MIC        0.78
4  C[C@H]1[C@H](NC(=O)/C(=N\OC(C)(C)C(=O)O)c2csc(N)n2)C(=O)N1S(=O)(=O)O  Pseudomonas aeruginosa                MIC         0.1
5  O=C(N[C@H](CO)[C@H](O)c1ccc([N+](=O)[O-])cc1)C(Cl)Cl  Pseudomonas aeruginosa                MIC        0.39
6  CC1COc2c(N3CCN(C)CC3)c(F)cc3c(=O)c(C(=O)O)cn1c23 (stereo not drawn)  Pseudomonas aeruginosa                MIC        0.05
7  CN(C)[C@@H]1C(O)=C(C(N)=O)C(=O)[C@@]2(O)C(O)=C3C(=O)c4c(O)cccc4[C@@](C)(O)[C@H]3C[C@@H]12  Pseudomonas aeruginosa                MIC        0.39

----------
Test system: Pseudomonas aeruginosa
Procedure Summary: Antibacterial activity against Pseudomonas aeruginosa TNP030 selected after 1.0 ug/ml of azithromycin by agar dilution method
Assay type: functional
Observed Property: log10 of MIC (log10 of the value in µg/mL)

>>> print(df.to_string())
                                   compound           system_tested  meas_value
0  C[C@@H](O)[C@H]1C(=O)N2C(C(=O)O)=C(SCCNC=N)C[C@H]12 [IMIPENEM ANHYDROUS]  Pseudomonas aeruginosa       -0.11
1  CC(C)(O/N=C(\C(=O)N[C@@H]1C(=O)N2C(C(=O)[O-])=C(C[n+]3ccccc3)CS[C@H]12)c1csc(N)n1)C(=O)O [CEFTAZIDIME]  Pseudomonas aeruginosa        0.50
2  C[C@H]1[C@H](NC(=O)/C(=N\OC(C)(C)C(=O)O)c2csc(N)n2)C(=O)N1S(=O)(=O)O [AZTREONAM]  Pseudomonas aeruginosa        1.10
3  CN(C)[C@@H]1C(O)=C(C(N)=O)C(=O)[C@@]2(O)C(O)=C3C(=O)c4c(O)cccc4[C@@](C)(O)[C@H]3C[C@@H]12 [TETRACYCLINE]  Pseudomonas aeruginosa        1.70
4  O=C(N[C@H](CO)[C@H](O)c1ccc([N+](=O)[O-])cc1)C(Cl)Cl [CHLORAMPHENICOL]  Pseudomonas aeruginosa        2.30
5  CC1(C)S[C@@H]2[C@H](NC(=O)C(C(=O)O)c3ccccc3)C(=O)N2[C@H]1C(=O)O (stereo partly drawn) [CARBENICILLIN]  Pseudomonas aeruginosa        2.30

----------
System: Pseudomonas aeruginosa
Procedure Summary: Antibacterial activity against Pseudomonas aeruginosa PAO4290 selected after 1.0 ug/ml of azithromycin by agar dilution method
Assay type: functional
This listing pairs compounds with measured log10 MIC.
Observed Property: log10 MIC (log10 of the value in µg/mL)

In [3]: df
Out[3]:
                                   compound           system_tested  observed_property  meas_value
0  CC1COc2c(N3CCN(C)CC3)c(F)cc3c(=O)c(C(=O)O)cn1c23 (stereo not drawn)  Pseudomonas aeruginosa          log10 MIC       -0.11
1  CC1(C)S[C@@H]2[C@H](NC(=O)C(C(=O)O)c3ccccc3)C(=O)N2[C@H]1C(=O)O (stereo partly drawn)  Pseudomonas aeruginosa          log10 MIC        1.10
2  C[C@@H](O)[C@H]1C(=O)N2C(C(=O)O)=C(SCCNC=N)C[C@H]12 [IMIPENEM ANHYDROUS]  Pseudomonas aeruginosa          log10 MIC       -0.11
3  CN(C)[C@@H]1C(O)=C(C(N)=O)C(=O)[C@@]2(O)C(O)=C3C(=O)c4c(O)cccc4[C@@](C)(O)[C@H]3C[C@@H]12  Pseudomonas aeruginosa          log10 MIC        0.50
4  O=C(N[C@H](CO)[C@H](O)c1ccc([N+](=O)[O-])cc1)C(Cl)Cl  Pseudomonas aeruginosa          log10 MIC        0.80
5  CO[C@@H]1[C@@H](OC(N)=O)[C@@H](O)[C@H](Oc2ccc3c(O)c(NC(=O)c4ccc(O)c(CC=C(C)C)c4)c(=O)oc3c2C)OC1(C)C  Pseudomonas aeruginosa          log10 MIC        2.30
6  C[C@H]1[C@H](NC(=O)/C(=N\OC(C)(C)C(=O)O)c2csc(N)n2)C(=O)N1S(=O)(=O)O  Pseudomonas aeruginosa          log10 MIC        0.19
7  CC(C)(O/N=C(\C(=O)N[C@@H]1C(=O)N2C(C(=O)[O-])=C(C[n+]3ccccc3)CS[C@H]12)c1csc(N)n1)C(=O)O  Pseudomonas aeruginosa          log10 MIC        0.19

----------
Test system: Pseudomonas aeruginosa
Procedure Summary: Antibacterial activity against Pseudomonas aeruginosa PAO4290 by agar dilution method
Type: functional
Observed Property: MIC (µg/mL)

>>> df
                                   compound  meas_value
0  CN(C)[C@@H]1C(O)=C(C(N)=O)C(=O)[C@@]2(O)C(O)=C3C(=O)c4c(O)cccc4[C@@](C)(O)[C@H]3C[C@@H]12        12.5
1  CO[C@@H]1[C@@H](OC(N)=O)[C@@H](O)[C@H](Oc2ccc3c(O)c(NC(=O)c4ccc(O)c(CC=C(C)C)c4)c(=O)oc3c2C)OC1(C)C         800
2  C[C@@H](O)[C@H]1C(=O)N2C(C(=O)O)=C(SCCNC=N)C[C@H]12 [IMIPENEM ANHYDROUS]        0.78
3  CC1COc2c(N3CCN(C)CC3)c(F)cc3c(=O)c(C(=O)O)cn1c23 (stereo not drawn)        0.78
4  CC1(C)S[C@@H]2[C@H](NC(=O)C(C(=O)O)c3ccccc3)C(=O)N2[C@H]1C(=O)O (stereo partly drawn)          50
5  O=C(N[C@H](CO)[C@H](O)c1ccc([N+](=O)[O-])cc1)C(Cl)Cl          25
6  C[C@H]1[C@H](NC(=O)/C(=N\OC(C)(C)C(=O)O)c2csc(N)n2)C(=O)N1S(=O)(=O)O        3.12
7  CC(C)(O/N=C(\C(=O)N[C@@H]1C(=O)N2C(C(=O)[O-])=C(C[n+]3ccccc3)CS[C@H]12)c1csc(N)n1)C(=O)O        1.56
